Tested on: 3T3 fibroblast cell line
Test: Cytotoxicity MTT assay
Format: cell-based
measurement name: Cytotoxicity category

Record excerpt, results attached:
Cc1ccc(S(=O)(=O)N2CC(=O)NC2=S)cc1 ... Low cytotoxicity
Cc1ccc(-c2cc(C(F)(F)F)nn2-c2ccc(S(N)(=O)=O)cc2)cc1 [Celecoxib, reference compound] ... Moderate cytotoxicity
CC(=O)c1cccc(S(=O)(=O)N2CC(=O)NC2=S)c1 ... Moderate cytotoxicity
O=C1CN(S(=O)(=O)c2cccc(C(=O)O)c2)C(=S)N1 ... Low cytotoxicity

Recall the reported Cytotoxicity category of Cc1ccc(S(=O)(=O)N2CC(=O)NC2=S)cc1C(=O)O when tested on 3T3 fibroblast cell line.
Low cytotoxicity

Reference source for all entries: paper PMC12316928
